inhibition by entry:
# Organism: Rattus norvegicus
# Protocol details: Inhibition of [14C]-L-NMMA (1 umol/L) binding to dimethylarginine dimethylaminohydrolase of rat kidney homogenate 100 uM
Value kind: inhibition

1. COCCN/C(N)=N/CC[C@H](N)C(=O)OC(C)C :: 30%
2. CCCOC(=O)[C@@H](N)CC/N=C(\N)NCCOC :: 64%
3. COCC/N=C(/N)NCCC[C@H](N)C(=O)OC :: 83%
4. COCCNC(=N)NCCC[C@H](N)C(=O)O :: 100%

###

# Species: Rattus norvegicus
# Protocol details: Inhibition of [14C]-L-NMMA (1 umol/L) binding to dimethylarginine dimethylaminohydrolase of rat kidney homogenate at 1 mM
Parameter threshold = 90%. Response is 1 when inhibition meets or exceeds it, else 0.

1. CC(C)OCC/N=C(\N)NCC[C@H](N)C(=O)O :: 1
2. CN(C)C(=N)NCC[C@H](N)C(=O)O :: 0
3. N/C(=N\CC[C@H](N)C(=O)O)N1CCCCC1 :: 0
4. C/N=C(\N)NCC[C@H](N)C(=O)O :: 0
5. CC/N=C(\N)NCC[C@H](N)C(=O)O :: 1

###

# Protocol details: Inhibition of [14C]-L-NMMA (1 umol/L) binding to dimethylarginine dimethylaminohydrolase of rat kidney homogenate
pIC50: −log10 of the molar value.
pIC50 by entry:
Value kind: pIC50

1) COCCNC(=N)NCCC[C@H](N)C(=O)O :: 4.66
2) C/N=C(\N)NCC[C@H](N)C(=O)O :: 2.82
3) COCC/N=C(/N)NCCC[C@H](N)C(=O)OC :: 4.70
4) COCCN/C(N)=N/CC[C@H](N)C(=O)OC(C)C :: 3.72
5) CC(C)OCC/N=C(\N)NCC[C@H](N)C(=O)O :: 3.52
6) CC/N=C(\N)NCC[C@H](N)C(=O)O :: 3.52
7) COCC/N=C(\N)NCC[C@H](N)C(=O)O :: 3.72
8) CN(C)C(=N)NCC[C@H](N)C(=O)O :: 3.49
9) CCCOC(=O)[C@@H](N)CC/N=C(\N)NCCOC :: 3.95
10) N/C(=N\CC[C@H](N)C(=O)O)N1CCCCC1 :: 3.58
